Data origin: ChEMBL document CHEMBL5034035

Procedure Text: AUC (0 to 24 hrs) in Cynomolgus monkey plasma at 50 mg/kg, po administered for 7 days
Type: ADME, organism-based, Macaca fascicularis
Parameters: route oral, time 7 day, dose 50 mg/kg
Property Name: AUC at 168 h (ng·h/mL)
Please state the figure in ng·h/mL; there is no need to write the unit.

# AUC at 168 h lookup, item `Cc1noc(-c2ccc(-c3ccc(C4(C(=O)O)CC4)cc3)cc2)c1NC(=O)O[C@H](C)c1ccccc1`
74000

* * *

Give measured IC50 for each item. Keep answers brief.
Tested On: Cytochrome P450 2B6 (Homo sapiens)
Sequence (P20813 whole entry): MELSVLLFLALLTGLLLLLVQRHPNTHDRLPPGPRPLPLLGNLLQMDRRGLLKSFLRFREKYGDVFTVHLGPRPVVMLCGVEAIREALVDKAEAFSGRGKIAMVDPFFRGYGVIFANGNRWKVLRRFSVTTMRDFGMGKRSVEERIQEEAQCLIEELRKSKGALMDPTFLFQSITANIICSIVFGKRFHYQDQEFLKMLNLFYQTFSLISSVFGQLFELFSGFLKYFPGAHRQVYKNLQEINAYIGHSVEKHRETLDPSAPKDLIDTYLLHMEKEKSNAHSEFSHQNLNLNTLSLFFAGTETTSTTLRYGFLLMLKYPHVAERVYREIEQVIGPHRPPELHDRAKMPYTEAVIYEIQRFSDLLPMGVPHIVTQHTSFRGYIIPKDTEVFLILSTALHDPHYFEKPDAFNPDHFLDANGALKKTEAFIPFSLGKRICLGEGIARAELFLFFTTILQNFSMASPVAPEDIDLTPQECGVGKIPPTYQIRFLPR

# IC50 lookup, item `Cc1noc(-c2ccc(-c3ccc(C4(C(=O)O)CC4)cc3)cc2)c1NC(=O)O[C@H](C)c1ccccc1`
> 50 µM

# IC50 lookup, item `Cc1nc(-c2nnn(C)c2COC(=O)N(C)CC2CCC2)ccc1O[C@H]1CCC[C@H](C(=O)O)C1`
> 40 µM

# IC50 lookup, item `CCCN(C)C(=O)OCc1c(-c2ccc(O[C@H]3CCC[C@H](C(=O)O)C3)c(C)n2)nnn1C`
> 40 µM

* * *

Tested On: hERG (KCNH2) (Homo sapiens, UniProt Q12809)
Sequence (Q12809 whole entry): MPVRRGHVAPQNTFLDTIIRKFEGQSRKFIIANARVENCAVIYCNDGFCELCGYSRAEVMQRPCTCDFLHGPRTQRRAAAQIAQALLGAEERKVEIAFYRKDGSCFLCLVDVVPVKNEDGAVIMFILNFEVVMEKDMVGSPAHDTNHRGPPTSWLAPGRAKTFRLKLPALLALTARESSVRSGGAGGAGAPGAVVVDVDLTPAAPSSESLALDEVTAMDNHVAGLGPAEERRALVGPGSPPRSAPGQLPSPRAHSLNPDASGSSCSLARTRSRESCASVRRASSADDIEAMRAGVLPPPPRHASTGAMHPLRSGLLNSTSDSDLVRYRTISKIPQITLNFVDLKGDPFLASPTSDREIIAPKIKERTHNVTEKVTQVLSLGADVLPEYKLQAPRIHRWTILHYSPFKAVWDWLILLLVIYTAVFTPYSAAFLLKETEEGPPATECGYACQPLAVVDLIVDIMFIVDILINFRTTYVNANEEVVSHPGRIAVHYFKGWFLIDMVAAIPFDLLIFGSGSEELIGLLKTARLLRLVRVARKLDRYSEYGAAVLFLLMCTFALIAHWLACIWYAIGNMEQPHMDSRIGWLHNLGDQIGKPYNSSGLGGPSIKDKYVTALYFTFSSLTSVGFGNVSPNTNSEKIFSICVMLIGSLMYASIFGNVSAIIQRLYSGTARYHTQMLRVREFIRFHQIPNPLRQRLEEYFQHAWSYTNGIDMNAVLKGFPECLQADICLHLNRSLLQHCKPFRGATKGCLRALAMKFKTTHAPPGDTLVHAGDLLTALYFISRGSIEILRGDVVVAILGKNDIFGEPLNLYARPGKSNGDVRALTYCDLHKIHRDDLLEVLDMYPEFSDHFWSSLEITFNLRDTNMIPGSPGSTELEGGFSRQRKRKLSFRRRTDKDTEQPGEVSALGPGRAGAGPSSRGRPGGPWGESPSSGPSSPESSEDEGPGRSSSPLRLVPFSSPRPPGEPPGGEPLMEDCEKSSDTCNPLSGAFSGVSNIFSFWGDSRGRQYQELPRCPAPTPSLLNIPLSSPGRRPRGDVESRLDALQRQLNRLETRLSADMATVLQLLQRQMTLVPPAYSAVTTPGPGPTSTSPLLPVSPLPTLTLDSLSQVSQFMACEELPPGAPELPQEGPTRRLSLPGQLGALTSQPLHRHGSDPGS
Procedure Text: Inhibition of hERG at 15 uM by electrophysiological assay relative to control
Property Name: inhibition at 15 µM (%)
Please state the figure in %; there is no need to write the unit.

# inhibition at 15 µM lookup, item `Cc1noc(-c2ccc(-c3ccc(C4(C(=O)O)CC4)cc3)cc2)c1NC(=O)O[C@H](C)c1ccccc1`
7

* * *

Procedure Text: Elimination half life in Sprague-Dawley rat at 3 mg/kg, po or 1 mg/kg, iv measured up to 24 hrs by LC-MS/MS analysis
Assay type: ADME, organism-based
Assay Conditions: in vivo, read-out: beta t1/2 (converted)
Give measured half-life for each item. Keep answers brief.
Please state the figure in h; there is no need to write the unit.

# half-life lookup, item `CCCN(C)C(=O)OCc1c(-c2ccc(O[C@H]3CCC[C@H](C(=O)O)C3)c(C)n2)nnn1C`
4.5

# half-life lookup, item `Cc1nc(-c2nnn(C)c2COC(=O)N(C)CC2CCC2)ccc1O[C@H]1CCC[C@H](C(=O)O)C1`
2

* * *

Procedure Text: AUC (0 to 24 hrs) in Sprague-Dawley rat plasma at 300 mg/kg/day
Assay type: ADME, organism-based
Set-up: time < 24 hr, dose 300 mg/kg/day
Property Name: AUC at 24 h (µg·h/mL)
Please state the figure in µg·h/mL; there is no need to write the unit.

# AUC at 24 h lookup, item `CCCN(C)C(=O)OCc1c(-c2ccc(O[C@H]3CCC[C@H](C(=O)O)C3)c(C)n2)nnn1C`
1140
